Reference for the values: patent US20140120095A1

Property: Kd; scope: individual binders
targetOrTestSystem: T1, recombinant human DLL4 (human, UniProt Q9NR61 25-522)
T1 construct: also called rhDLL4; hDLL4
T1 sequence (Q9NR61 25-522): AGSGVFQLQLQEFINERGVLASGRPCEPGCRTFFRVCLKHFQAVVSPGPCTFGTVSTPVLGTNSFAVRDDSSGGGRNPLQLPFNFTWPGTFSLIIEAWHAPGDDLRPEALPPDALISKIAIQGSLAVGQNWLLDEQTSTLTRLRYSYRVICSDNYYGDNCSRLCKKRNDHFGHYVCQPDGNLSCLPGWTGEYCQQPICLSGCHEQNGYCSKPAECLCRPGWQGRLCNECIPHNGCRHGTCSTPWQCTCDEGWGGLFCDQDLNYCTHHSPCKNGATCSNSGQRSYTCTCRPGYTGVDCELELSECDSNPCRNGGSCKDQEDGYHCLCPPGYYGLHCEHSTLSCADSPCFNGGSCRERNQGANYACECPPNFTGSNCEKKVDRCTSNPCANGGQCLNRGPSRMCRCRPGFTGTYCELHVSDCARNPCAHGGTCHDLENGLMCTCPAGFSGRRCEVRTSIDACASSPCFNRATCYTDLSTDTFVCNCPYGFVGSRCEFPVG
measurementNotes: SPR Biacore T100, hDLL4 on chip, VHH/Fab injected

binder	unitsOfMeasure	Kd
DLLBII96C03 (VHH, also called 96C3) VHH: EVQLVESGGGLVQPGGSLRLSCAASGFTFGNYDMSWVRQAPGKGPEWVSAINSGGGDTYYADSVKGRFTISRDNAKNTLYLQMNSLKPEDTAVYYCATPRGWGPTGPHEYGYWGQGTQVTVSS	nM	310
DLLBII101G08 (VHH, also called 101G8; DLLBII101G8) VHH: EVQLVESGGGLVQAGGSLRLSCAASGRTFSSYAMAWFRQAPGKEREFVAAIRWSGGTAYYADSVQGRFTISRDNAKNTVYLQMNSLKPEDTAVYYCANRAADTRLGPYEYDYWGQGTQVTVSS	nM	52
